Target: DOR/MOR (Mus musculus, UniProt P32300+P42866)
Sequence (P42866 whole entry): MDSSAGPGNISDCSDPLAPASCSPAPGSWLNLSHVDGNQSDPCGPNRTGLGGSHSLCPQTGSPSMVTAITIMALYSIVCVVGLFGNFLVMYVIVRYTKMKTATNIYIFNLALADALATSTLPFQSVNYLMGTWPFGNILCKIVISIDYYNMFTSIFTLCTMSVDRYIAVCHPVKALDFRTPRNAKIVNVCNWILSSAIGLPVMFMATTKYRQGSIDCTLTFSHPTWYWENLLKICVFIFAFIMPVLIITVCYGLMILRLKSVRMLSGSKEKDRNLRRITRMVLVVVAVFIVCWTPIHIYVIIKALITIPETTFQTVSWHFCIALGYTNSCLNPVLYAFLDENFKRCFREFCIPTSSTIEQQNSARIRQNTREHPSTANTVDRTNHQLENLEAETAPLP
Sequence (P32300 whole entry): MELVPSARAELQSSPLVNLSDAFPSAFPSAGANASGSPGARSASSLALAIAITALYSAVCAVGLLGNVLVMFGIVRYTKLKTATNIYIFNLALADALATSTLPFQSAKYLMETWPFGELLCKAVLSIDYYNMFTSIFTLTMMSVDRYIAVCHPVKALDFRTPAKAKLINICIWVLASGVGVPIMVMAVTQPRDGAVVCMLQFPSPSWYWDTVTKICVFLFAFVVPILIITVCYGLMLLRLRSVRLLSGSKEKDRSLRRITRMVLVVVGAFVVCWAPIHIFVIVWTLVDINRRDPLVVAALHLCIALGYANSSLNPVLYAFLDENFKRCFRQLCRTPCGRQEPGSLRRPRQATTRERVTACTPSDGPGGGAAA
Test: cell-based
Structures can show the parent of a compound that is named as a salt.
observedProperty: IC50 (nM)

Oc1ccc2c3c1O[C@H]1c4oc5ccccc5c4C[C@@]4(O)[C@@H](C2)N(CC2CC2)CC[C@]314 [NTB, naltriben mesylate] :: 251
Oc1ccc2c3c1O[C@H]1c4[nH]c5ccccc5c4C[C@@]4(O)[C@@H](C2)N(CC2CC2)CC[C@]314 [NTI, Naltrindole hydrochloride] :: 126
